Numbers sourced from the supplement of paper PMC8728848.

- TESTED SYSTEM: Gal(b1-4)GlcNAc(b1-2)Man(a1-3)[GlcNAc(b1-2)Man(a1-6)]Man(b1-4)GlcNAc(b1-4)GlcNAc
- EXPERIMENT SUMMARY: glycan array binding signal (z-score within array); higher = stronger binding
- SETUP CONDITIONS: glycan notation: IUPAC condensed, linker removed
The sample as a whole holds a higher share of the strongest signals than the screen did.
READOUT KIND: glycan array binding signal (z-score)

Ask: Consider the binder shown here: cFel (Cyprinus carpio), P68512 (protein) LDCTVIDGNLKQIDAGSGSVVGVNNLNETFVLIDNVFTKISGSLKHFSVGPAGQLGVNTANNIFKYQSGGFVQLAGLLKQVDAGGDQIIAGVNMYDDIYCLNMDANNKWPSSNTPWVQINGKLKYYSCGPYSCWGVNSNDQIFIMKDVSSNVCSGSGSFINIPGLLSMIEVATDGSVFGVNSQGNLYQRTGVTRSKPDGTDWISMVACPNGHKHVSFDLGVLWLVCVDGSIRKCILTD What is its recorded glycan array binding signal (z-score)?
Reply: 0.271

Ask: Consider the binder shown here: LlpA1 (Pseudomonas fluorescens), Q4KHC3 (protein) MGSSHHHHHHSSGLVPRGSHMAWIRYDFTDNGSSVLPARYYMAPNQYLQSPNKRFKLLFQADGNLALYDGAQLAWVADQNTPFTNVSKGNKKDPMMVFMNYGFVLDDPLRGRIWSTTPSDPTMGSREDASLRAFTQVQDDGNIVTVDTIPHWYAPNGRVFTPAVGAAMIIGGTTELVPGQFYSAGEHSLVFQGDGNLVVYGPNSSVIWATYTQNKGGVRCVMQEDGNLVIYAANNGVVWQSGTGGHPGATIRLQANGSFTIVTERPVWARFGYTPTIKPPRVFYPDHKWKTGSYTWNNVF What is its recorded glycan array binding signal (z-score)?
Reply: 0.504

Ask: Consider the binder shown here: GNL (Galanthus nivalis) (protein) MGHHHHHHHHYGTLENGHWLMVGMSIFSKDRTVELRMQDDGKLAIYYNDHCAWQSTAQQVNNAKGAVMQGDGNFCIYDKNGKATWHTNTAAPSGDSHTFVSVQDDGNLVLYKNNGATPIWSSKSNK What is its recorded glycan array binding signal (z-score)?
Reply: 3.92

Ask: Consider the binder shown here: CCL1 (Coprinopsis cinerea) (protein) MDTQAKPPAGRYVIYNRVLSPNGEKLALTYPGYQREALTLTPLHHSANQIWILNNWDATTSSLTPETARNTQVGWGSGNVPIVLPPGNYVWTLASSAGGYIIQDGGKTVYWNAGEAVANTKVSIGGDNGLQARWIFERV What is its recorded glycan array binding signal (z-score)?
Reply: -0.106

Ask: Consider the binder shown here: CLEC-1 (Homo sapiens), Q9NZH3 (protein) MQAKYSSTRDMLDDDGDTTMSLHSQASATTRHPEPRRTEHRAPSSTWRPVALTLLTLCLVLLIGLAAWGLLFFQYYQLSNTGQDTISQMEERLGNTSQELQSLQVQNIKLAGSLQHVAEKLCRELYNKAGAHRCSPCTEQWKWHGDNCYQFYKDSKSWEDCKYFCLSENSTMLKINKQEDLEFAASQSYSEFFYSYWTGLLRPDSGKAWLWMDGTPFTSELFHIIIDVTSPRSRDCVAILNGMIFSKDCKELKRCVCERRAGMVKPESLHVPPETLGEGD What is its recorded glycan array binding signal (z-score)?
Reply: -0.583
